Each entry below lists one item and its recorded fraction unbound value.
- Type: in vitro ADME
- condition.set: serum
Square brackets hold non-standard residues; d marks the D form. Peptide text beside a SMILES is read from it. Gly(N-CH2-oxan-4-yl) = O=C(O)CNCC1CCOCC1; NMeA = CN[CH](C)C(=O)O; NEtG = CCNCC(=O)O
Respond with the number and no other words.

| compound | fraction unbound |
| --- | --- |
| CCN1CC(=O)NC(CC(C)C)C(=O)N(C)C(C)C(=O)NC(CC(C)C)C(=O)N2CCCC2C(=O)N(CC2CCOCC2)CC(=O)NC(CC(C)C)C(=O)N(C)C(C)C(=O)NC(C)C(=O)N2CCCC2C1=O (stereo not drawn) [A03] (cyclo([NEtG]L[NMeA]LP[Gly(N-CH2-oxan-4-yl)]L[NMeA]AP); configuration not given here) | 0.31 |

Let us move to another entry and its fraction unbound.
Entry CCN1CC(=O)N[C@@H](CC(C)C)C(=O)N(C)[C@@H](C)C(=O)N[C@@H](CC(C)C)C(=O)N2CCC[C@@H]2C(=O)N(CC2CCOCC2)CC(=O)N[C@@H](CC(C)C)C(=O)N(C)[C@@H](C)C(=O)N[C@@H](Cc2ccccc2)C(=O)N2CCC[C@@H]2C1=O [A09] (cyclo([NEtG]L[NMeA]L[dP][Gly(N-CH2-oxan-4-yl)]L[NMeA]F[dP])) has what fraction unbound?
0.02

Where these numbers come from: paper PMC7719619
